Molecular target: T1, NHERF3_4, Q5T2W1
T1 sequence (Q5T2W1 373-468, limits assumed, looked up): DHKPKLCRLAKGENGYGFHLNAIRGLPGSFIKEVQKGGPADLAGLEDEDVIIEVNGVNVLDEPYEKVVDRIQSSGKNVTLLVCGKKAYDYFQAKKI
Experiment: holdup assay
Set-up: key: below the threshold = too weak to quantify, mostly under pKd 3.1 to 4
Conditions: plain residues with an end cap or a label only (N-terminal biotin on a linker: ahx)
Observed property: pKd

Past entries and their recorded results:
>>> value_measured("ESLLLGPSNF [SHROOM4, Q9ULL8]")
"below the threshold"
>>> value_measured("LSDPSVSTVV [GRIN1, Q05586;Q05586-2]")
"below the threshold"
>>> value_measured("SDSSGQEYSL [KCTD3, Q9Y597]")
"below the threshold"
>>> value_measured("RRRKRKRTYL [HPV49-L2, P36762]")
4
>>> value_measured("NRKREIFSNF [NHERF2, Q15599]")
"below the threshold"

Look up pKd for this binder: GYDWGPATDL [TJP3, O95049] below the threshold

Here is the next binder: PSASCAVTAA [PDLIM4, P50479;P50479-2] below the threshold

Here is the next binder: TVICWPGSLV [LNX2, Q8N448] below the threshold

Here is the next binder: HNAFLSVTTV [PDZRN4, Q6ZMN7] 3.61

Here is the next binder: RAVEEEESRF [PSCDBP, O60759] below the threshold

Reference source: paper PMC9482650
